Experimental Target: T1, human TNFR2 extracellular domain with C-terminal 10×His tag (human, UniProt P20333 23-257)
T1 construct: also called huTNFR2-His; His-tag-huTNFR2
T1 sequence: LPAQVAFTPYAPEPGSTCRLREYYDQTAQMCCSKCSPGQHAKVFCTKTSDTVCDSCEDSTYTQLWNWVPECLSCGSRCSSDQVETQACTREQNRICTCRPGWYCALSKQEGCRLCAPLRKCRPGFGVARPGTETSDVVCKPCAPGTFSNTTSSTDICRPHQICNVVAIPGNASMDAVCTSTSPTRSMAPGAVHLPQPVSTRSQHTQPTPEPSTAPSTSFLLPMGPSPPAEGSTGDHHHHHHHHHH
Protocol Notes: BLI (Octet RED96), antibody captured on AHC biosensor, His-tag-huTNFR2 in solution, 1:1 model
Reported koff values are given for each entry in this list.

{"Binder": "SB1901-80 humanized anti-TNFR2 antibody (antibody, V domains shown) VH: QVQLVQSGAEVKKPGASVKVSCKASGYTFTDDYIDWVRQAPGQGLEWIGEIYPGSGNTYYNEKFKGRVTMTRDTSTSTVYMELSSLRSEDTAVYYCARSQVYGKIAMDHWGQGTLVTVSS VL: DIVMTQSPDSLAVSLGERATINCRASESVDNSGNSFMHWYQQKPGQPPKLLIYRASNLESGVPDRFSGSGSRTDFTLTISSLQAEDVAVYYCQQSKEDPYTFGQGTKVEIK", "Readout Units": "s⁻¹", "koff": 0.000937}
{"Binder": "SB1901-72 humanized anti-TNFR2 antibody (antibody, V domains shown) VH: QVQLVQSGAEVKKPGASVKVSCKASGYTFTDDYIDWVRQATGQGLEWIGEIYPGSGNTYYNEKFKGRVTMTRDKSISTAYMELSSLRSEDTAVYYCARSQVYGKIAMDHWGQGTLVTVSS VL: DIVMTQSPDSLAVSLGERATINCRASESVDNSGNSFMHWYQQKPGQPPKLLIYRASNLESGVPDRFSGSGSRTDFTLTISSLQAEDVAVYYCQQSKEDPYTFGQGTKVEIK", "Readout Units": "s⁻¹", "koff": 0.000456}
{"Binder": "SB1901-68 humanized anti-TNFR2 antibody (antibody, V domains shown) VH: QVQLVQSGAEVKKPGASVKVSCKASGYTFTDDYIDWVRQATGQGLEWIGEIYPGSGNTYYNEKFKGRVTMTRDTSISTAYMELSSLRSEDTAVYYCARSQVYGKIAMDHWGQGTLVTVSS VL: DIVMTQSPDSLAVSLGERATINCRASESVDNSGNSFMHWYQQKPGQPPKLLIYRASNLESGVPDRFSGSGSRTDFTLTISSLQAEDVAVYYCQQSKEDPYTFGQGTKVEIK", "Readout Units": "s⁻¹", "koff": 0.000796}
